Kindly state growth for each of the entries shown.
System: OVCAR-4 ovarian
Test: NCI-60 one-dose screen, 48 h (100 = growth as untreated, 0 = no growth, -100 = all killed)
Conditions: 10 µM unless noted
This is part of a sample that, as a whole, favours compounds with a hit. Of some 83,000 tested, about 20% had one in any assay.
Give bare numbers, in %.

Consider the worked cases shown below.
Cc1nc2cccc(NCc3ccc(C(=O)NO)cc3)c2c(=O)n1-c1ccccc1; 62.2
Cc1ccc(-c2nn(CC(=O)N3CCOCC3)c(N)c2C#N)cc1; 91.8
CNC(=O)c1cc(Oc2ccc3nc(NC(=O)c4cc(C(F)(F)F)cc(C(F)(F)F)c4)sc3c2)ccn1; 15.8
O=S(=O)(c1ccc(NCSc2nc3ccccc3s2)cc1)c1ccc(NCSc2nc3ccccc3s2)cc1; 117
O=c1[nH]c(CN2CCN(c3ccccc3)CC2)nc2c(Br)cc(Br)cc12; 105
Cc1oc2ccc(O)c(CN3CCCCCC3)c2c1C(=O)Nc1ccc(C(F)(F)F)cc1; 58.6

Give me growth for each of these molecules, listed below.
1. C[C@@H]1N=C(c2ccc(Cl)cc2Cl)Nc2nc3ccccn3c2C1=O
2. Cc1c(C(=O)C(SC(=S)N2CCOCC2)SC(=S)N2CCOCC2)nnn1-c1ccc([N+](=O)[O-])cc1
3. C#Cc1cccc(Nc2ncnc3ccc(-c4cnc(Cl)c(NS(C)(=O)=O)c4)cc23)c1

[89.5, 109, 9.21]

###

System: HT29 colon
Assay: NCI-60 one-dose screen, 48 h (100 = growth as untreated, 0 = no growth, -100 = all killed)
Conditions: 10 µM unless noted
Protocol: Growth inhibition of the HT29 human tumor cell line is measured as a screen for anti-cancer activity. Cells are grown in 96 well plates and exposed to the test compound for 48 hours. Compounds are tested at a single concentration, which is 10^-5 M for most compounds. The reported endpoint is percent growth (GI% or GIPRCNT), where numbers from 0 - 100% represent growth inhibition, and numbers from -100% - 0 represent cell death. For example, a value of 40 represents 60% growth inhibition. […]
Compounds without any hit were thinned out: in the full panel of roughly 83,000, 20% have a hit.
Measured Endpoint: growth (%)
Give bare numbers, in %.

Take a look at these entries with their results.
Cc1ccc(C2(C)NC(=O)N(CC(=O)Nc3cccc(C)c3)C2=O)cc1 (stereo not given); 96.6
O=C(N/N=C/c1ccccc1Cl)c1ccccc1Nc1ccnc(C(F)(F)F)c1; 3.22
Cc1ccc(OCCOCCOCCOCCOc2ccc(C)n(O)c2=S)c(=S)n1O; 23.9
C=C1C(=O)O[C@H]2[C@H]1CC/C(CNC(=O)/C=C/c1cc(OC)c(OC)c(OC)c1)=C\CC[C@@]1(C)O[C@@H]21; -66.4

Suppose we examine the compound CSc1nc(N)c2c(n1)NC(c1ccccc1)C1CCc3ccccc3C1=N2 (stereo not given) ; what growth value has been reported?
42.7

###

Provide the reported growth of each item.
Tested on: MDA-MB-231 breast
Assay: NCI-60 one-dose screen, 48 h (100 = growth as untreated, 0 = no growth, -100 = all killed)
Settings: 10 µM unless noted
About 83,000 compounds went through this panel and 20% of them were active in at least one assay; those are over-represented in the sample as a whole. Active and inactive are the calls of the source. How the source made its calls: active means growth percent below 10; inactive means the rest.

Record excerpt, results attached:
CN1CCN(c2ccc(Nc3ncc4[nH]c(=O)n(Cc5ccccc5N)c4n3)cc2)CC1; 83.8% (inactive)
COc1cc2cc(Oc3ccc(NC(=O)Nc4ccc(Cl)c(Cl)c4)cc3)c(C)nc2cc1OCCN1CCCCC1; 91.4% (inactive)
COc1ccc(-c2ccc(-c3ccc(C(=N)N)o3)o2)cc1; 8.3% (active)
COc1ccc(S(=O)(=O)NC2c3ccccc3CC2O)cc1OC (stereo unspecified); 112% (inactive)
Cc1c(N2CCCCC2)[nH]c2ccccc12; 121% (inactive)
O=C(c1ccc(F)cc1)C1CCN(CCn2c(=O)[nH]c3ccccc3c2=O)CC1; 110% (inactive)

Batch lookup, growth per entry.
1. CN(Cc1ccccc1)c1nc(Cl)c(C2CC(c3ccc(Cl)cc3)=NN2c2cc(Cl)cc(Cl)c2)s1 (stereo unspecified)
2. Oc1ccc(C2OCCO2)c2cccnc12
3. COc1ccc(/C=N\NC(=O)c2ccc3nc(-c4ccc(Cl)cc4)[nH]c3c2)cc1
4. CC(C)(C)n1cc(-c2ccnc(NCCNS(=O)(=O)c3ccc(C(F)(F)F)cc3)c2)c(-c2ccccc2)n1

110% (inactive)
46.6% (inactive)
39.8% (inactive)
92.1% (inactive)
